- system.tested: GSK-3α/β
- measurement.protocol: GSK-3α/β in vitro kinase assay (GS-1 peptide)
- conditions: 15 μM ATP, 30 min at 30 °C, triplicate; >10 = less than 50% inhibition at 10 µM
measurement.kind: pIC50
// pIC50: -log10(molar conc.)

N/C(=N\CCN1CCOCC1)c1nc2ccc3ncn(C4CC4)c(=O)c3c2s1 [Compound 17c] = 5.55

Shift focus to the following entry.
Task: Suppose we examine the compound N/C(=N\CCN1CCCCC1)c1nc2ccc3ncn(C4CC4)c(=O)c3c2s1 [Compound 17d] ; what pIC50 value has been reported?
Output: 5.41

---

- system.tested: CDK5/p25 (Homo sapiens, UniProt Q00535)
- Construct: made in house
- Sequence (Q00535 whole entry): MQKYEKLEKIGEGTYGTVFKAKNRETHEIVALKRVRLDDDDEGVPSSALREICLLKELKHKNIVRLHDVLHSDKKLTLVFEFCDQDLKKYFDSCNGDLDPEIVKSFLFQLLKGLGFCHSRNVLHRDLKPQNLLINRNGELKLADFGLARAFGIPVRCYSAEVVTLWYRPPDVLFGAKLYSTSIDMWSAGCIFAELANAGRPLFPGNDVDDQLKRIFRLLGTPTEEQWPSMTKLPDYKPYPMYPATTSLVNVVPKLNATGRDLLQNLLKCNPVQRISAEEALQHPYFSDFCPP
- Sequence (Q15078 99-307 partner limits assumed): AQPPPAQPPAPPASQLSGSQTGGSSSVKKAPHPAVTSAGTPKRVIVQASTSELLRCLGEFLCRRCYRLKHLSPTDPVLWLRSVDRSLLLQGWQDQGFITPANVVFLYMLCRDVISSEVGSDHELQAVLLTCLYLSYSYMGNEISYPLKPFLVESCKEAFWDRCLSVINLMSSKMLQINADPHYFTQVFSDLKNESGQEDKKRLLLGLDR
- measurement.protocol: CDK5/p25 in vitro kinase assay (histone H1, [γ-33P] ATP)
- Assay type: biochemical
- conditions: 15 μM ATP, 30 min at 30 °C, triplicate; >10 = less than 50% inhibition at 10 µM
pIC50: −log10 of the molar value.
pIC50 values by entry

N=C(c1nc2ccc3ncn(C4CC4)c(=O)c3c2s1)N1CCOCC1 [Compound 17e] = < 5.00
N=C(c1nc2ccc3ncn(C4CC4)c(=O)c3c2s1)N1CCCCC1 [Compound 17f] = < 5.00

Shift focus to the following entry.
Task: Suppose we examine the compound O=c1c2c(ccc3nc(NCCN4CCCCC4)sc32)ncn1C1CC1 [Compound 14c] ; what pIC50 value has been reported?
Output: < 5.00

Attribution: paper PMC6272913
